Source listed as patent US9006451B1.

This section presents molecules with their documented GI50 values.
Test system: UO-31
Assay: NCI 60 human tumor cell line screen (SRB): UO-31
Assay type: cell-based
Conditions: UO-31, Renal, 48 hours, read-out: GI50 values (μM conc.)
Provide the reading as a plain figure in µM.

# annotated cases, reported GI50 shown
Measured GI50 of `COc1ccc(Nc2ncccc2/C=C/C(=O)c2cc(OC)c(OC)c(OC)c2)cc1` : 1.12

Measured GI50 of `COc1cc(C(=O)/C=C/c2cccnc2Nc2ccccc2)cc(OC)c1OC` : 1.19

Measured GI50 of `COc1cc(Nc2ncccc2/C=C/C(=O)c2cc(OC)c(OC)c(OC)c2)cc(OC)c1OC` : 5.09

Measured GI50 of `COc1ccc(C(=O)/C=C/c2cccnc2Nc2cc(OC)c(OC)c(OC)c2)cc1` : 1.44

***
Measured GI50 of `COc1cc(/C=C/C(=O)c2cccnc2Nc2ccc(F)cc2)cc(OC)c1OC` : 5.62

Measured GI50 of `COc1cc(C(=O)/C=C/c2cccnc2Nc2ccc(Cl)cc2)cc(OC)c1OC` : 1.32

----------
Tested on: SK-MEL-28
Assay: NCI 60 human tumor cell line screen (SRB): SK-MEL-28
Format: cell-based
Conditions: SK-MEL-28, Melanoma, 48 hours, read-out: GI50 values (μM conc.)
This section presents compounds with their documented GI50 values.
Provide the reading as a plain figure in µM.

# annotated cases, reported GI50 shown
Measured GI50 of COc1cc(C(=O)/C=C/c2cccnc2Nc2ccccc2)cc(OC)c1OC [6a] : 1.58

Measured GI50 of COc1ccc(Nc2ncccc2/C=C/C(=O)c2cc(OC)c(OC)c(OC)c2)cc1 [6h] : 1.37

Measured GI50 of COc1cc(Nc2ncccc2/C=C/C(=O)c2cc(OC)c(OC)c(OC)c2)cc(OC)c1OC [6v] : 5.43

Measured GI50 of COc1cc(/C=C/C(=O)c2cccnc2Nc2ccc(F)cc2)cc(OC)c1OC [7f] : 3.22

***
Measured GI50 of COc1ccc(C(=O)/C=C/c2cccnc2Nc2cc(OC)c(OC)c(OC)c2)cc1 [6z] : 3.72

Measured GI50 of COc1cc(C(=O)/C=C/c2cccnc2Nc2ccc(Cl)cc2)cc(OC)c1OC [6ax] : 1.72

----------
Test system: LOX IMVI
Test: NCI 60 human tumor cell line screen (SRB): LOX IMVI
Type: cell-based
Settings: Melanoma, 48 hours, read-out: GI50 values (μM conc.)
Lab note - cut at 1 µM for GI50: yes if strictly below, no if not.

These recorded examples may help you get a feel for the data.
input: GI50 under 1 µM? Item: `COc1cc(C(=O)/C=C/c2cccnc2Nc2ccccc2)cc(OC)c1OC`
output: yes

input: GI50 under 1 µM? Item: `COc1ccc(C(=O)/C=C/c2cccnc2Nc2cc(OC)c(OC)c(OC)c2)cc1`
output: no

***
input: GI50 under 1 µM? Item: `COc1ccc(Nc2ncccc2/C=C/C(=O)c2cc(OC)c(OC)c(OC)c2)cc1`
output: no

input: GI50 under 1 µM? Item: `COc1cc(/C=C/C(=O)c2cccnc2Nc2ccc(F)cc2)cc(OC)c1OC`
output: no

input: GI50 under 1 µM? Item: `COc1cc(C(=O)/C=C/c2cccnc2Nc2ccc(Cl)cc2)cc(OC)c1OC`
output: no

input: GI50 under 1 µM? Item: `COc1cc(Nc2ncccc2/C=C/C(=O)c2cc(OC)c(OC)c(OC)c2)cc(OC)c1OC`
output: no
